- assay-info: in vitro
- reported-conditions: human, plasma, PPB
Kind request: treat 0.03 as inclusive, so fraction unbound at 5 h at 0.03 or higher is 1.0, anything lower is 0.0.

# compound, qualitative-label
rows = [
    ("NC(=O)c1cc(C(N)=O)n(-c2cccc(-c3cc(C(F)(F)F)ccc3C(F)(F)F)c2)n1", 1.0),
]

[Q] Reported fraction unbound at 5 h at or above 0.03? `COc1cnc(-c2ccccn2)nc1N1CCOCC1`
[A] 1.0

[Q] Reported fraction unbound at 5 h at or above 0.03? NC1=NC(c2ccc(F)cc2)Cc2ccc(F)cc21 (stereo not given)
[A] 1.0

[Q] Reported fraction unbound at 5 h at or above 0.03? `Cc1cnc(Nc2ccc(N3CCN(C)CC3)cc2)nc1Nc1cccc(S(=O)(=O)NC(C)(C)C)c1`
[A] 1.0

[Q] Reported fraction unbound at 5 h at or above 0.03? `Cc1nc(C)c(-c2ccc([C@H]3CC[C@H](CC(N)=O)CC3)cc2)nc1C(N)=O`
[A] 1.0

[Q] Reported fraction unbound at 5 h at or above 0.03? `COc1ccc(S(=O)(=O)NC(=O)N2CCC(N3CCC(Oc4ccc(Cl)c(Cl)c4)CC3)CC2)cc1`
[A] 0.0

[Q] Reported fraction unbound at 5 h at or above 0.03? `Cc1ccc(S(=O)(=O)Nc2ccc3nc(C)oc3c2)cc1`
[A] 0.0

[Q] Reported fraction unbound at 5 h at or above 0.03? `CN(C)c1ccc(S(=O)(=O)NC(=O)N2CCC(N3CCC(Oc4ccc(Cl)c(Cl)c4)CC3)CC2)cc1`
[A] 0.0

[Q] Reported fraction unbound at 5 h at or above 0.03? Cc1cc(I)cc2c1NC(C(=O)O)C1CC=CC21 (stereo not given)
[A] 0.0

[Q] Reported fraction unbound at 5 h at or above 0.03? `O=c1cc(N2CCOCC2)nc(NCc2cccc(Cl)c2Cl)[nH]1`
[A] 0.0

----------
- assay-info: physchem
- reported-conditions: pH 7.4 buffer
Kind request: treat 40 µM as inclusive, so solubility thermodynamic at 40 µM or higher is Fulfilled, anything lower is Not fulfilled.

# smiles-record, qualitative-label
measured = [
    ("C=CCN(C(=O)NCc1cccc(C)c1)C1CCN(CCC(c2ccccc2)c2ccccc2)CC1", "Not fulfilled"),
]

[Q] Reported solubility thermodynamic at or above 40 µM? `Clc1cc(Nc2ncnc3[nH]nc(OCCN4CCOCC4)c23)ccc1OCc1ccccn1`
[A] Not fulfilled

[Q] Reported solubility thermodynamic at or above 40 µM? `Clc1cccc(CNc2[nH]nc3cccc(Oc4ccccc4)c23)c1`
[A] Not fulfilled

----------
- assay-info: physchem
- reported-conditions: octan-1-ol/water, pH 7.4, LogD7.4
measured-metric: logD
A bare number is all that is needed in reply.

Consider the following illustrative entries.
# compound, logD
records = [
    ("Oc1nc2ccccc2nc1NCc1ccccc1", 3.3),
    ("Cc1ccc(/C=C(\\C#N)C(N)=O)cc1", 2.09),
    ("CNc1c(C(N)=O)cnc2[nH]c(-c3ccc(OCCN4CCOCC4)cc3)nc12", 2.14),
    ("COc1cc(F)ccc1-c1cncc(CNC(=O)c2cnccn2)c1", 2.5),
    ("c1cn(-c2ccc(Oc3nccc(Oc4ccc5c(c4)OCO5)n3)cc2)cn1", 3.27),
    ("CNC(=O)c1cccc(NC(=O)Nc2cccc(C#N)c2)c1CN1CCC(Cc2ccc(F)cc2)CC1", 3.97),
    ("Nc1nc2ccc(-c3cccc(O)c3)cc2s1", 3.1),
    ("N#Cc1cnn2c(N)cc(-c3ccc(F)cc3)nc12", 2.23),
    ("C[C@@H]1CN(Cc2nnc(-c3cc(-c4cccc5[nH]ccc45)cc4[nH]ncc34)o2)C[C@H](C)O1", 4.01),
    ("CC(C)NC(=O)c1ccc2c(Nc3ccc(Cl)cc3)nc(N3CCOCC3)nc2c1", 2.78),
]

[Q] For the compound shown here, `N#Cc1cnn2c(N)cc(-c3cccs3)nc12` , give the reported logD.
[A] 2.3

[Q] For the compound shown here, `Cc1cc(C)c2c(n1)sc1c(N3CCN(C)CC3)ncnc12` , give the reported logD.
[A] 3.2

[Q] For the compound shown here, OC(CCN1CCCCC1)(c1ccccc1)C1CC2C=CC1C2 (configuration not stated) [BIPERIDEN] , give the reported logD.
[A] 2.49

[Q] For the compound shown here, `CNC(=O)c1cccc(S(=O)(=O)Nc2ncc(C)nc2OC)c1-c1ccc(CC(C)C)cc1` , give the reported logD.
[A] 1.68

[Q] For the compound shown here, `COc1ccc(/C=C2/CCc3ccccc3C2=O)cc1CN1CCOCC1` , give the reported logD.
[A] 3.8

[Q] For the compound shown here, `CCC(CC)n1nc(C)c(C(=O)N[C@@H](C)C(C)(C)C)c1NS(=O)(=O)c1ccc(C)cc1` , give the reported logD.
[A] 1.88

----------
Below is a list of entries, each paired with its recorded logD value.
- assay-info: physchem
- reported-conditions: octan-1-ol/water, pH 7.4, LogD7.4
A bare number is all that is needed in reply.

Consider the following illustrative entries.
# smiles-record, logD
measured = [
    ("CNC[C@H](O)c1ccc(Cl)c(C(=O)NCC23CC4CC(CC(C4)C2)C3)c1", 1.41),
    ("CCO[C@@H]1OC(=O)C[C@@H]1NC(=O)[C@@H]1CCCN2C(=O)CC[C@H](NC(=O)c3nccc4ccccc34)C(=O)N12", 1.16),
    ("COc1ccc2nc3ccccc3c(N)c2c1", 1),
]

[Q] For the molecule shown here, `CC(C)N(CCCNC(=O)Nc1ccc(C(C)(C)C)cc1)C[C@H]1O[C@@H](n2ccc3c(N)ncnc32)[C@H](O)[C@@H]1O` , give the reported logD.
[A] 2.4

[Q] For the molecule shown here, `CC[C@H](NC(=O)c1c(N)c(-c2cccc(F)c2)nc2ccccc12)c1ccccc1` , give the reported logD.
[A] 4.05

----------
- assay-info: in vitro
- reported-conditions: SD, HW or BN, rat, plasma
measured-metric: fraction unbound at 5 h
A bare number is all that is needed in reply.

Consider the following illustrative entries.
# molecule, test-result
records = [
    ("O=C(NCc1ccc(OC(F)(F)F)cc1)C1c2cccc(O)c2C(=O)N1CCc1ncc(F)cn1 (centres undefined)", 0.0418),
    ("Cc1nc(C(F)F)c(C(N)=O)nc1-c1ccc([C@H]2CC[C@H](CC(=O)O)CC2)cc1", 0.0383),
    ("CN(C)CCC1CCN(c2cc(C(=O)NC[C@H]3CC[C@H](CNC(=O)OC4CCOCC4)CC3)c3ccccc3n2)CC1", 0.262),
    ("Cc1ccc(S(=O)(=O)Nc2c(C(=O)N[C@H](C)C(C)(C)C)c(C)nn2-c2ccccc2)cc1", 0.0374),
    ("C[C@H](Cc1cccc(CC(=O)NC23CC4CC(CC(C4)C2)C3)c1)NC[C@H](O)c1ccc(O)c(CO)c1", 0.134),
    ("O=C1Cc2cc(CCN3CCN(c4nsc5ccccc45)CC3)c(Cl)cc2N1 [ZIPRASIDONE]", 0.003),
    ("Cc1ccc(S(=O)(=O)N(C)c2ccc3sc(C)nc3c2)cc1", 0.0067),
    ("CCCCc1nc(Cl)c(C(=O)O)n1Cc1ccc(-c2ccccc2-c2nn[nH]n2)cc1 [CARBOXYLIC ACID METABOLITE]", 0.0022),
]

Kindly review the next molecule as well.
[Q] For the molecule shown here, `N#Cc1c(O)nc(N)nc1-c1ccccc1` , give the reported fraction unbound at 5 h.
[A] 0.0366

----------
- assay-info: in vitro
- reported-conditions: hepatocytes
Kind request: treat 50 µL/min/1e6 cells as inclusive, so hepatocyte CLint at 50 µL/min/1e6 cells or higher is 1, anything lower is -1.

The examples below pair each entry with its known result.
# compound, qualitative-label
records = [
    ("CN[C@@H](C)C(=O)N[C@H](C(=O)N1CC[C@H]2CCN(CCc3ccccc3)C[C@H]21)C1CCCCC1", -1),
    ("Cc1ccc(S(=O)(=O)Nc2c(C(=O)N[C@@H](C)C(C)(C)C)c(C)nn2C2CCN(CC(F)(F)F)CC2)cc1", -1),
    ("COc1c(Nc2ccc(S(C)(=O)=O)nc2C)ncnc1OC1CCN(C(=O)OC(C)C)CC1", -1),
    ("COc1ccc2ncc(C#N)c(CCN3CCC(NCc4cc5c(cn4)OCS5)CC3)c2c1", 1),
    ("COCC1=C(C(=O)OC(C)OC(=O)OC(C)C)N2C(=O)[C@@H](NC(=O)/C(=N\\OC)c3csc(N)n3)[C@H]2SC1 (some centres not stated)", 1),
]

[Q] Reported hepatocyte CLint at or above 50 µL/min/1e6 cells? `Cc1nn(C)c2cc(N3CCN(C(=O)[C@@H]4CCCC[C@H]4C(=O)NC4(C#N)CC4)[C@H](C)C3)ccc12`
[A] -1

[Q] Reported hepatocyte CLint at or above 50 µL/min/1e6 cells? `O=C(Nc1cccc(-c2nnn[nH]2)c1)c1cccc2[nH]cnc12`
[A] -1

[Q] Reported hepatocyte CLint at or above 50 µL/min/1e6 cells? COc1ccc(N(C(C)=O)C(C(=O)NC2CCCC2)c2ccccc2F)c(OC)c1 (configuration not stated)
[A] 1

[Q] Reported hepatocyte CLint at or above 50 µL/min/1e6 cells? `C[C@@](C(=O)O[C@H]1C[N+]2(CC(=O)Nc3ccccc3)CCC1CC2)(c1ccccc1)N1CCCCC1`
[A] 1

[Q] Reported hepatocyte CLint at or above 50 µL/min/1e6 cells? `O=C(Nc1nc2ccccc2s1)c1ccccc1`
[A] 1

[Q] Reported hepatocyte CLint at or above 50 µL/min/1e6 cells? `Cc1nc(-c2ccc(OCC(C)C)c(C#N)c2)sc1C(=O)O`
[A] -1

Just for reference, ChEMBL document CHEMBL3301361 is where these values come from.
